system: HT-29; assay: Antiproliferative activity against human HT-29 cells assessed as reduction in cell growth measured after 48 hrs by MTT assay; format: functional, cell-based; settings: HT-29, 48 h
pIC50: −log10 of the molar value.

[
  {
    "compound": "Cc1noc(C)c1Cn1c(=O)nc(-c2ccc(F)cc2)c2c3c(sc21)CC(C(C)(C)C)CC3 (stereo not drawn)",
    "pIC50": 4.97
  },
  {
    "compound": "COc1ccc(-c2nc(=O)n(Cc3cnc(Cl)s3)c3sc4c(c23)CCC(C(C)(C)C)C4)cc1 (stereo not drawn)",
    "pIC50": 4.01
  },
  {
    "compound": "Cc1noc(C)c1Cn1c(=O)nc(-c2ccccc2Cl)c2c3c(sc21)CC(C(C)(C)C)CC3 (stereo not drawn)",
    "pIC50": 4.72
  }
]

These entries and their values trace back to ChEMBL document CHEMBL4392838.
